Recorded TOTAL PROTEIN by entry
Organism: Rattus norvegicus
Experiment: DrugMatrix - Regimen: Daily Repeat
Format: toxicity, organism-based, Sprague-Dawley
Design: regimen Daily Repeat, gender Male, age 6-8 weeks
Conditions: in vivo, po, 0 mg/kg, 72 h, tissue Plasma, route oral GAVAGE, dose level Control, time 3 day, vehicle .5 % CMC

{"columns": ["COMPOUND", "QUANTITY_UNIT", "TOTAL PROTEIN"],
 "data": [
  ["Clc1ccccc1CN1CCc2sccc2C1", "G/DL", 6.28],
  ["O=C1CN=C(c2ccccc2Cl)c2cc([N+](=O)[O-])ccc2N1", "G/DL", 5.75],
  ["O=C1Nc2ccc(Cl)cc2C(c2ccccc2Cl)=NC1O (stereo not drawn)", "G/DL", 5.9],
  ["CCN(CC)CCOc1ccc(/C(=C(/Cl)c2ccccc2)c2ccccc2)cc1", "G/DL", 5.98],
  ["O=C1C(CC[S+]([O-])c2ccccc2)C(=O)N(c2ccccc2)N1c1ccccc1 (stereo not drawn)", "G/DL", 5.9],
  ["CN(C/C=C/C#CC(C)(C)C)Cc1cccc2ccccc12", "G/DL", 5.9],
  ["CC(C(=O)O)c1ccc2oc(-c3ccc(Cl)cc3)nc2c1 (stereo not drawn)", "G/DL", 5.93],
  ["C[C@H]1O[C@@H](n2cc(F)c(=O)[nH]c2=O)[C@H](O)[C@@H]1O", "G/DL", 5.75],
  ["Cn1c(=O)c2c(ncn2CC(O)CO)n(C)c1=O (stereo not drawn)", "G/DL", 5.8],
  ["NCCCC(O)(P(=O)(O)O)P(=O)(O)O", "G/DL", 6.28],
  ["CN(C)[C@@H]1C(O)=C(C(N)=O)C(=O)[C@@]2(O)C(O)=C3C(=O)c4c(O)ccc(Cl)c4[C@@](C)(O)[C@H]3C[C@@H]12", "G/DL", 5.8],
  ["COC1=C(OC)C(=O)C(CCCCCCCCCCO)=C(C)C1=O", "G/DL", 5.75],
  ["CN/C(=N/CCSCc1nc[nH]c1C)NC#N", "G/DL", 5.75],
  ["NC1CCN(c2nc3c(cc2F)c(=O)c(C(=O)O)cn3-c2ccc(F)cc2F)C1 (stereo not drawn)", "G/DL", 5.9],
  ["COc1ccc(C2C(=O)c3ccccc3C2=O)cc1", "G/DL", 6.28],
  ["CC(=O)Oc1ccc(C(c2ccc(OC(C)=O)cc2)c2ccccn2)cc1", "G/DL", 5.93],
  ["CNCCC(Oc1ccc(C(F)(F)F)cc1)c1ccccc1 (stereo not drawn)", "G/DL", 6.35],
  ["COc1cc2nc(N3CCN(C(=O)c4ccco4)CC3)nc(N)c2cc1OC", "G/DL", 5.9]
]}

###

Species on record: Rattus norvegicus
Assay: DrugMatrix - Regimen: Daily Repeat
Type: toxicity, organism-based, Sprague-Dawley
Parameters: regimen Daily Repeat, gender Male, age 6-8 weeks
Settings: in vivo, po, 10 mg/kg, 72 h, tissue Plasma, route oral GAVAGE, dose level Low, time 3 day, vehicle .5 % CMC

{"columns": ["COMPOUND", "ASPARTATE AMINOTRANSFERASE [u/L]"],
 "data": [
  ["Fc1ccc(C(c2ccc(F)cc2)N2CCN(C/C=C/c3ccccc3)CC2)cc1", 90.33],
  ["CNCCC(Oc1ccc(C(F)(F)F)cc1)c1ccccc1 (centres undefined)", 53],
  ["O=C1C(CC[S+]([O-])c2ccccc2)C(=O)N(c2ccccc2)N1c1ccccc1 (centres undefined)", 105.67],
  ["O=C1CN=C(c2ccccc2Cl)c2cc([N+](=O)[O-])ccc2N1", 85.33]
]}
